meta.source: paper PMC10628450

Measured On: T1, NKp46-His6 (Homo sapiens, UniProt O76036)
T1 construct: recombinant human NKp46 (natural cytotoxicity receptor); soluble recombinant receptor; probably the extracellular domain; also called (rh) NKp46; recombinant NKp46-His6; source: bought: AcroBiosystems
Assay Protocol: BLI; antibodies loaded at 5 µg/ml on anti-human-Fc (AHC) or anti-human-CH1 (FAB2G) biosensors; antigen in solution (EGFR 3.125-200 nM; NKp46 and NKp30 1.6-100 nM) in kinetics buffer (PBS, 0.1% Tween-20, 1% BSA); 25°C; 1:1 binding model
Measurement Conditions: both partners purified
Hi there, I'd appreciate the recorded pKd for every entry that follows.
One number for each entry, as −log10 of the molar value.

Anti-NKp46_AB_F06 (bispecific antibody, V domains shown, human IgG1 heavy chain constant region from its start to the PPSR motif before the AB loop of CH3; numbers count on: EU numbering; Gly4Ser linker; anti-EGFR bovine knob F06 (from an ultralong CDR-H3); human IgG1 heavy chain constant region from the motif after the AB loop of CH3 (printed as NGVS) to its end; as the light chain of m1; IgG1 with LALA; EEMTK of the AB loop replaced by G4S-knob-G4S; …) VH: QVQLVQSGAEVKKPGSSVKVSCKASGYTFSDYVINWVRQAPGQGLEWMGEIYPGSGTNYYNEKFKAKATITADKSTSTAYMELSSLRSEDTAVYYCARRGRYGLYAMDYWGQGTTVTVSS VL: DIQMTQSPSSLSASVGDRVTITCRASQDISNYLNWYQQKPGKAPKLLIYYTSRLHSGVPSRFSGSGSGTDFTFTISSLQPEDIATYFCQQGNTRPWTFGGGTKVEIK | 8.70

Ask | Returns the measured pKd for the input binder. Input: Anti-NKp46 IgG (antibody, V domains shown, human IgG1 heavy chain constant region (CH1, hinge, CH2, CH3); numbers count on: EU numbering; IgG1 with LALA; also called parental monospecific anti-NKp46 antibody; anti-NKp46 LALA IgG; source: Expi293 cells, transiently transfected, purified (MabSelect); copies: 2 + 2) VH: QVQLVQSGAEVKKPGSSVKVSCKASGYTFSDYVINWVRQAPGQGLEWMGEIYPGSGTNYYNEKFKAKATITADKSTSTAYMELSSLRSEDTAVYYCARRGRYGLYAMDYWGQGTTVTVSS VL: DIQMTQSPSSLSASVGDRVTITCRASQDISNYLNWYQQKPGKAPKLLIYYTSRLHSGVPSRFSGSGSGTDFTFTISSLQPEDIATYFCQQGNTRPWTFGGGTKVEIK
Reply | 9.00
